B1: FAM164A (parent)
chain: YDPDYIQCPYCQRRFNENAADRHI

- Variants of: B1
- assay-protocol: protein stability index of a GFP-peptide fusion (GPS, HEK-293T) (PSI 1-6); higher = more stable;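 also: lentivirally expressed fusions sorted by FACS into six bins by GFP to DsRed ratio, PSI derived from sequencing read proportions per bin multiplied by bin number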
- condition-label: c terminus: a fixed tail appended
Exercise: state measured protein stability index for each of the variants provided.

- Y5L: 4.25
- P3C: 3.49
- C8W: 2.96
- I6Q: 4.03
- Y10W: 3.89

Report protein stability index for each item below.
1. I24C
2. N18G
3. Q7W
4. C11W

Outgoing:
1. 4.12
2. 3.92
3. 2.83
4. 3.42

Report protein stability index for each item below.
1. D21P
2. Y5R
3. P9H
4. D21A

Outgoing:
3.92
3.52
2.83
4.33

Report protein stability index for each item below.
1. C11L
2. Y5W
3. Y1M
4. F15T
5. N18H
6. Y1G
7. C11I
8. D2H

Outgoing:
[3.13, 4.68, 4.24, 2.48, 4.37, 4.17, 3.22, 2.78]
